So I've got a bunch of binders here, and I need their kon values.
# Target under test: T1, Recombinant SARS-CoV-2 N protein His tagged (SARS-CoV-2, UniProt P0DTC9 1-419)
# T1 construct: also called nucleocapsid (N) protein; recombinant HIS tagged SARS-CoV-2 N protein
# Experiment: BLI (Octet Red 96E), mAb on anti-mouse Fc biosensor, N protein in solution, global 1:1 fit
The answer is to be given in M⁻¹ s⁻¹; state only the numeric part.

Endpoint output: kon of SCT-Pa03 (antibody, mouse IgG1, kappa, V domains shown) VH: QVQLKQSGAELVRPGASVKLSCKASGYTFTDYYINWVKQRPGQGLEWIARIYPGNNYAYYDEKFKGKATLTAEKSSSTAYMQLSSLTSEDSAVYFCAKDDGYRFAYWGQGTLVTVSA VL: DIQMTQSSSYLSVSLGGRVTITCKASDHINNWLAWYQQKPGNAPRLLISGATSLETGVPSRFSGSGSGKDYTLSITSLQTEDVATYYCQQYWSTPPTFGGGTKLEIKR . Value?
215000

// returns reported kon for input SCT-Pa19 (antibody, mouse IgG1, kappa, V domains shown) VH: QVQLQQPGAELVRPGSSVKLSCKASGYTFTNYWMLWVKQRPMQGLEWIGSIDPSDSETHYNQKFKDKATLTVDKSSSTAYMRLGSLTSEDSAVYYCARDSYGWYFDVWGTGTTVTVSS VL: DIVMTQSQKFMSTSVGDRVSVTCKASQNVGSNVAWYQQKSGQSPKALIYSASYRYSGVPDRFTGSGYGTDFTLTISNVQSEDLAEYFCQQYNNYPLTFGAGTKLELKR
444000

// query kon value for entry SCT-Pa08 (antibody, mouse IgG1, kappa, V domains shown) VH: QVQLHQSGAELVKPGASVKLSCKASGYTFTEYSIHWVKQRSGQDLEWIGWFNPGTGSIKYNEKFKDKATLTADKSSSTVYMELSRLTSEDSAVYFCARHGGRWVIQWNFDVWGTGTTVTVSS VL: DIVMSQSPSSLAVSVGEKVTMSCKSSQNLLYSSNQKNFLAWYQQRPGQSPKLLIYWASTRESGVPDRFTGSGTGTDFTLTISSVKAEDLAVYYCQQYYRYPFTFGSGTKLEIKR
860000

Any idea what its kon is? The binder is SCT-Pa12 (antibody, mouse IgG1, kappa, V domains shown) VH: QVQLQQSGAELARPGASVKLSCKASGYSFTSYGISWVKQRTGQGLEWIGDIYPRSGNTDYNEKFKGKATLTADKSSSTANMQLSSLTSEDSAIYFCARSGDGYLYAMDYWGQGTSVTVSS VL: DIQMTQTTSSLSASLGDRVTISCRASQDISNYLNWYQQKPDGTVKLLIYYTSRLHSGVPSRFSGSGSGTDYSLTISNLEPEDIAPYYCQQYSKLPYTFGSGTKLEIKR
428000

Quick one: kon for SCT-Pa05 (antibody, mouse IgG1, kappa, V domains shown) VH: EVQLQQSGAELVKPGASVKLSCTTSGFNIKDYYFHWVKQRTEQGLEWIGRIDPEDGETEYAPKFRDKATITADTSSNTAYLQLSSLTSEDTAIYYCARSLYYWGQGTTLTVSS VL: DIVMTQSPSSLSVWAGEKVTMSCKSSQSLLNSGDQKNYLTWYQQKPGQSPKLLIYETSTRDYGVPDRFTGSGSGADFTLTISSVQAEDLAVYYCLNDLTYPLTFGAGTKLELKR ?
624000

Look at this binder and give its reported kon. SCT-Pa04 (antibody, mouse IgG1, kappa, V domains shown) VH: EVQLQQSGPELVKPGASVKMSCKASGYSFTSYVMHWVKQKPGQGLEWIGYINPYNDGTKYNEKFKGKATLTSDKSSSTAFMDLSSLTSDDSAVYYCSRDDYSNPPFAYWGQGTLVTVSA VL: SIVMTQTPKFLLVSAGDRITITCKASQSVSNNVAWYQQKPGQSPTLLISYASNRFTGVPDRFTGSGYGTDFTFTISIVQAEDLAVYFCQQDYDSPYTFGGGTKLEIKR
498000

Entry SCT-Pa15 (antibody, mouse IgG1, kappa, V domains shown) VH: QVQVKQSGPGLVQPSQSLSITCTVSGFSSTSYAIHWVRQSPGKGLEWLGVIWSGGTTDYNAAFISRLSFSKDNSKSQLFFKMNSLQADDTAMYYCARGNYYGMDYWGQGTSVTVSS VL: DIVVTQSPASLAVSLGQRATISCRASESIDYDGDSYVNWYQQKPGQPPNLLIYAASNLESGIPARFSGGGSGTDFTLTIHPVEEEDAATYYCLQSYETPWTFGGGTKLEIKR has what kon?
868000

kon lookup needed for SCT-Pa07 (antibody, mouse IgG1, kappa, V domains shown) VH: EVQLQQSGPELVKPGDSVKMSCKASGYTFTDYYMDWVKQSHGKSLEWIGYIYTNNGDTNYNQKFKGKATLTVDKSSSTAYMELHSLTSEDSAVYYCASLYYSNFFDSWGQGTTLTVSS VL: ENVLTQSPAIMSATLGEKVTVSCRARSNVKYMYWYQQKSGASPKLLIYYTSNLASGVPARFSGSGSGTSYSLTISSVEAEDAATYYCQQFTSSPFTFGSGTKLEIKR , thanks.
458000

Item under review: SCT-Pa20 (antibody, mouse IgG1, kappa, V domains shown) VH: QVQLQQPGAELVKPGASVKLSCKASGYTFTDYWINWVKQRPGQGLEWIGNIYPGSSDTNYNEKFKRKATLTVDTSSSTAYMQLSSLTSDDSAVYYCARRPLFHAMDYWGQGTSVTVSS VL: DIVLTQSPASLAVTLGQRATISCKASQSINYNGDNYMHWFQQKPGQPTKLLIYTASNLESGVPDRFSGSGSGTDFTLNIHPVEEEDAATYYCQQSKEFPWTFGGGTKLEIKR . Reported kon?
576000
